Reported MDCK-MDR1 Papp A→B (10^−6 cm/s) values are given for each entry in this list.
# Target Or Test System: human MDR1 (P-glycoprotein; P-gp) (Homo sapiens (Human))
# Sequence (P08183 whole entry): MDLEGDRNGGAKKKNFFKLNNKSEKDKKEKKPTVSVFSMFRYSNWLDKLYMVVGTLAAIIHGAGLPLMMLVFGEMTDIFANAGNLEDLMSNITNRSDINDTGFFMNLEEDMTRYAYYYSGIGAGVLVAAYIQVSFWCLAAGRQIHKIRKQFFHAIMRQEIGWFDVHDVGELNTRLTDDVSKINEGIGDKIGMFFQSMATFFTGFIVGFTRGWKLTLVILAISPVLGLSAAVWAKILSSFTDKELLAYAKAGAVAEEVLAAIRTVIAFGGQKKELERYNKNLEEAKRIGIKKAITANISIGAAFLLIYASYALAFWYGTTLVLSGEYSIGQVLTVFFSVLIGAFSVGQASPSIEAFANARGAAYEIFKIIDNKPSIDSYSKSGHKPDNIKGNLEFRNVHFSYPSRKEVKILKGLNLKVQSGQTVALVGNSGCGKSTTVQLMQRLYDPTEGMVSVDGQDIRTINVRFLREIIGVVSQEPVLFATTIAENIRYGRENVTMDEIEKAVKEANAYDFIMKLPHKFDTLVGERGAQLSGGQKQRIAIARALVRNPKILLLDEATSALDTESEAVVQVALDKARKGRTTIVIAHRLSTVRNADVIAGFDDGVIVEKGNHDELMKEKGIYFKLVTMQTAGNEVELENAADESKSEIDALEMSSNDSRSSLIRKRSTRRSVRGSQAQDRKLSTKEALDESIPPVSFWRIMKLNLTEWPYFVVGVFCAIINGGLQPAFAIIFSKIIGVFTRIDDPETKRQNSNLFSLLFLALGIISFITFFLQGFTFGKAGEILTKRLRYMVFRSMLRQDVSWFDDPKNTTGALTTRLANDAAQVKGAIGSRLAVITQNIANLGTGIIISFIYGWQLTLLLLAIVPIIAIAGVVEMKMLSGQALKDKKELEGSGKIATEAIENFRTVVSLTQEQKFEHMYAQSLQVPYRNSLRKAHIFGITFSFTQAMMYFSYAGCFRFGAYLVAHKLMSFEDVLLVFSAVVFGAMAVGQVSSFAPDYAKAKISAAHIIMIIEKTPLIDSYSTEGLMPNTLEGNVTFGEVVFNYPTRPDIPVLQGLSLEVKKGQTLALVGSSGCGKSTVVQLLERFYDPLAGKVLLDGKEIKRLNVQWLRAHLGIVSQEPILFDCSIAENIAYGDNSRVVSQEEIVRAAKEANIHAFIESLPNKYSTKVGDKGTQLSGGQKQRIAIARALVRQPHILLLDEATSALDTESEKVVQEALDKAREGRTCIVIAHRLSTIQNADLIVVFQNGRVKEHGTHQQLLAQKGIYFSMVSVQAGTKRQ
# Measurement Description: bi-directional MDCK-MDR1 permeability assay
# Assay type: in vitro ADME
# Run Conditions: apical to basolateral direction

Enquiry: # query: MDCK-MDR1 Papp A→B (10^−6 cm/s) of entry CC(=O)N1CCC([C@@H]2Nc3cc(F)cc4c(=O)[nH]nc(c34)[C@H]2c2ncnn2C)CC1 [Compound 0218B]
Return: 0.335 10^−6 cm/s

Enquiry: Give the measured MDCK-MDR1 Papp A→B (10^−6 cm/s) of O=c1[nH]nc2c3c(cc(F)cc13)N[C@@H]([C@@H]1CCOC1)[C@@H]2c1ccc(F)cc1F [Compound 0115D] .
Return: 4.94 10^−6 cm/s

Enquiry: # get_value(readout='MDCK-MDR1 Papp A→B (10^−6 cm/s)', item= CC[C@@H]1Nc2cc(F)cc3c(=O)[nH]nc(c23)[C@H]1c1ccccc1Cl [Compound 0206A] )
Return: 13.4 10^−6 cm/s

Enquiry: I'd like to know its MDCK-MDR1 Papp A→B (10^−6 cm/s). The molecule in question is C[C@@H]1Nc2cc(F)cc3c(=O)[nH]nc(c23)[C@@H]1[C@H]1CCCCN1C [Compound 0199C]
Return: 0.506 10^−6 cm/s

Enquiry: Quick one: MDCK-MDR1 Papp A→B (10^−6 cm/s) of N#Cc1ccc([C@H]2CNc3cc(F)cc4c(=O)[nH]nc2c34)c(F)c1 [Compound 0187B] ?
Return: 8.56 10^−6 cm/s

Enquiry: Entry Cn1ncnc1[C@H]1c2n[nH]c(=O)c3cc(F)cc(c23)N[C@@H]1C1CCC(F)(F)CC1 [Compound 0215A] : reported MDCK-MDR1 Papp A→B (10^−6 cm/s) = ?
Return: 0.373 10^−6 cm/s

Enquiry: # get_value(readout='MDCK-MDR1 Papp A→B (10^−6 cm/s)', item= Cn1ncnc1[C@@H]1c2n[nH]c(=O)c3cc(F)cc(c23)N[C@H]1C1CC1 [Compound 0203B] )
Return: 0.568 10^−6 cm/s

Enquiry: Which MDCK-MDR1 Papp A→B (10^−6 cm/s) is reported for this molecule? C[C@@H]1Nc2cc(F)cc3c(=O)[nH]nc(c23)[C@H]1c1ncnn1C [Compound 0201B]
Return: 0.567 10^−6 cm/s

Enquiry: Reported MDCK-MDR1 Papp A→B (10^−6 cm/s), molecule C[C@H]1Nc2cc(F)cc3c(=O)[nH]nc(c23)[C@@H]1c1ccc(C#N)c(F)c1 [Compound 0193A] : ____
Return: 5.83 10^−6 cm/s

Enquiry: Looking for the measured MDCK-MDR1 Papp A→B (10^−6 cm/s) of C[C@H]1Nc2cc(F)cc3c(=O)[nH]nc(c23)[C@@H]1c1ccc(C#N)cc1F [Compound 0194A] , can you help?
Return: 6.96 10^−6 cm/s

Enquiry: Recorded MDCK-MDR1 Papp A→B (10^−6 cm/s) of O=c1[nH]nc2c3c(cc(F)cc13)N[C@@H](C1CCOCC1)[C@@H]2c1ccccc1Cl [Compound 0210A] , please.
Return: 2.91 10^−6 cm/s

Enquiry: Any idea what MDCK-MDR1 Papp A→B (10^−6 cm/s) was measured for C[C@H]1Nc2cc(F)cc3c(=O)[nH]nc(c23)[C@@H]1c1ccc(Cl)cc1F [Compound 0196A] ?
Return: 13 10^−6 cm/s

Enquiry: // returns reported MDCK-MDR1 Papp A→B (10^−6 cm/s) for input CC(=O)N1CCC([C@@H]2Nc3cc(F)cc4c(=O)[nH]nc(c34)[C@H]2c2ccccc2Cl)CC1 [Compound 0223B]
Return: 0.685 10^−6 cm/s

Enquiry: Give its MDCK-MDR1 Papp A→B (10^−6 cm/s) value. Item: O=c1[nH]nc2c3c(cc(F)cc13)N[C@H]([C@H]1CCOC1)[C@H]2c1ccccc1Cl [Compound 0121A]
Return: 5.66 10^−6 cm/s
